TESTED_SYSTEM: hNav1.1 (Homo sapiens)
Construct: expressed in transfected cells; host or cells: HEK293, transient transfection (α1:β1:β2 = 10:1:1)
PROCEDURE_DETAILS: Nav1.1 use-dependent block, whole-cell voltage clamp
Format: cell-based
COND: use-dependent block 10 Hz, read-out: NAv1.1*-CHAN TEST-UDB-10 HZ-
METRIC_NAME: inhibition at 1 µM (%)

# MOLECULE, inhibition at 1 µM, %
measured = [
    ("CC1Oc2ccc(-c3ccc(OC(F)(F)F)cc3)cc2C(=O)N1Cc1ncccn1 (stereo not drawn) [VIII-7]", 12.1),
    ("O=c1c2cc(-c3ccc(OC(F)(F)F)cc3)ccc2cnn1CCOc1ncccn1 [III-28]", 40.5),
    ("Cc1noc(Cn2ncc3ccc(-c4ccc(OC(F)(F)F)cc4)cc3c2=O)n1 [III-2]", 27.6),
    ("Cc1noc(Cn2nnc3ccc(-c4ccc(OC(F)(F)F)cc4)cc3c2=O)n1 [II-3]", -6),
    ("O=C(c1ncccn1)N1CCc2ccc(-c3ccc(C(F)(F)F)cc3)cc2C1 [IX-7]", 2.02),
]

A. O=C1c2cc(-c3ccc(OC(F)(F)F)cc3)ccc2CCN1Cc1ncccn1 [IX-1]
B. Cc1ncc(Cn2nnc3ccc(-c4ccc(OC(F)(F)F)cc4)cc3c2=O)o1 [II-95]
Task: Please indicate which entry, A or B , has the lower recorded inhibition at 1 µM value. Kindly state the label of the option you pick.
Result: A

A. O=C1c2cc(-c3ccc(C(F)(F)F)cc3)ccc2OCN1Cc1ccccn1 [VIII-1]
B. O=c1c2cc(-c3ccc(OC(F)(F)F)cc3)ccc2cnn1CCn1cccn1 [III-9]
Task: Out of A and B , name the one with the higher inhibition at 1 µM. Kindly state the label of the option you pick.
Result: B

All figures here come from patent US20150329558A1.
